Biological target: récepteur vasculaire de l'angiotensine II (Oryctolagus cuniculus, UniProt P34976)
Construct: réponse contractile induite par l'angiotensine II dans des anneaux isolés d'aorte de lapin
Sequence (P34976 whole entry): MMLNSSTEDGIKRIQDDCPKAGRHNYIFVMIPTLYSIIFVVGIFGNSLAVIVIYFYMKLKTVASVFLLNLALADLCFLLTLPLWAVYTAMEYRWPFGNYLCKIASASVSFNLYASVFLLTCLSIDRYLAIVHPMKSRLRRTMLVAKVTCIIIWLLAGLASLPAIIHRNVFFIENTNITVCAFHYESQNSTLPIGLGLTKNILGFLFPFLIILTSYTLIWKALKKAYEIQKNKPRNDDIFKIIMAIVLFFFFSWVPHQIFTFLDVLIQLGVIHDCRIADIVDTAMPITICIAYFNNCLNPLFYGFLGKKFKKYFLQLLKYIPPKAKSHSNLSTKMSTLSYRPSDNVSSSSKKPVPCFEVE
Experiment: Antagonism of the angiotensin II-induced contractile response in isolated rabbit aortic rings
Conditions: contraction by angiotensine II 3.10⁻⁹ M, test product preincubated 15 minutes, 37°C
observed.property: pIC50
# pIC50: negative log10 of molar concentration; output just the value

Below: 10 molecules and their reported pIC50.
>>> experimental_result("CCCCc1nc(Cl)c(CNc2ccccc2C(=O)O)n1Cc1ccc(C(=O)NS(=O)(=O)c2ccccc2C)cc1 [compound 66]")
8.06
>>> experimental_result("CCCCCOC(=O)c1ccccc1NCc1cnc(CCCC)n1Cc1ccc(C(=O)O)cc1 [compound 170]")
7.10
>>> experimental_result("CCCCc1nc(Cl)c(CNc2ccccc2C(=O)O)n1Cc1ccc(C(=O)O)cc1Cl [compound 41]")
8.29
>>> experimental_result("CCCCCC(=O)OCOC(=O)c1ccccc1NCc1cnc(CCCC)n1Cc1ccc(C(=O)O)cc1 [compound 148]")
7.92
>>> experimental_result("CCCCc1ncc(CNc2cc(N=[N+]=[N-])ccc2C(=O)O)n1Cc1ccc(C(=O)O)cc1 [compound 226]")
8.22
>>> experimental_result("CCCCc1ncc(CNc2ccccc2C(=O)O)n1Cc1ccc(C(=O)NS(=O)(=O)c2ccccc2)cc1 [compound 203]")
8.36
>>> experimental_result("CCCCc1ncc(CNc2cc([N+](=O)[O-])ccc2C(=O)O)n1Cc1ccc(C(=O)O)cc1 [compound 35]")
8.92
>>> experimental_result("CCCCc1ncc(CNc2ccccc2C(=O)OCC2COC(C)(C)O2)n1Cc1ccc(C(=O)O)cc1 (stereo not shown) [exemple 26]")
7.00
>>> experimental_result("CCCCc1ncc(CNc2ccccc2C(=O)OCOC(=O)CCC)n1Cc1ccc(C(=O)O)cc1 [compound 149]")
8.30
>>> experimental_result("CCCc1nc(Cl)c(CNc2ccccc2C(=O)O)n1Cc1ccc(C(=O)O)cc1 [compound 42]")
8.29

**Q:** # lookup: pIC50 of CCCCc1nc(Cl)c(CNc2cc3ccccc3cc2C(=O)O)n1Cc1ccc(C(=O)O)cc1 [compound 47]
**A:** 7.15

**Q:** Which value of pIC50 has been reported for CCCCc1nc(I)c(CNc2ccccc2C(=O)O)n1Cc1ccc(C(=O)O)cc1 [compound 44] in the records?
**A:** 8.28

**Q:** Item under review: CCCc1ncc(CNc2ccccc2C(=O)O)n1Cc1ccc(C(=O)O)cc1 [compound 36] . Reported pIC50?
**A:** 8.15

**Q:** What value of measured pIC50 is listed for CCCCc1ncc(CNc2ccccc2C(=O)OCC(=O)N(CCC)CCC)n1Cc1ccc(C(=O)OCC(=O)N(CCC)CCC)cc1 [compound 181] ?
**A:** 7.10

**Q:** Form field: reported pIC50 of CCCCc1ncc(Cn2c(C(=O)O)cc3ccccc32)n1Cc1ccc(C(=O)O)cc1 [compound 33]
**A:** 8.15

**Q:** For CCCCc1ncc(CNc2ccccc2C(=O)O)n1Cc1ccc(C(=O)OCC)cc1 [compound 174] , what is its reported pIC50?
**A:** 7.10

---

Molecular target: récepteur vasculaire de l'angiotensine II (Oryctolagus cuniculus, UniProt P34976)
Construct: réponse contractile induite par l'angiotensine II dans des anneaux isolés d'aorte de lapin
Assay: Antagonism of the angiotensin II-induced contractile response in isolated rabbit aortic rings
Conditions: contraction by angiotensine II 3.10⁻⁹ M, test product preincubated 15 minutes, 37°C
Recorded log10(IC50) by entry
All values: base-10 log of IC50 in nM.

Observe how each entry below is paired with its result.
>>> experimental_result("CCCCc1nc(Cl)c(CNc2c(C(=O)O)cc(OC)c(OC)c2OC)n1Cc1ccc(C(=O)O)cc1")
1.76
>>> experimental_result("CCCCc1ncc(CNc2ccccc2C(=O)O)n1Cc1ccc(C(=O)OCC2CC2)cc1")
1.83
>>> experimental_result("CCCCc1ncc(CNc2ccccc2C(=O)OCOC(=O)CCC)n1Cc1ccc(C(=O)NS(=O)(=O)c2ccccc2C)cc1")
0.85

**Q:** Tell me the measured log10(IC50) of CCCCc1ncc(CNc2ccccc2C(=O)O)n1Cc1ccc(C(=O)NS(=O)(=O)c2ccccc2C)cc1 , please.
**A:** 0.18

**Q:** Give its log10(IC50) value. Item: CCCCc1ncc(CNc2ccccc2C(=O)O)n1Cc1ccc(C(=O)NS(=O)(=O)c2ccc(OC)cc2)cc1
**A:** 0.98

**Q:** Which log10(IC50) is reported for this compound? CCCCc1nc(SC)c(CNc2ccccc2C(=O)O)n1Cc1ccc(C(=O)O)cc1
**A:** 0.66

**Q:** For the compound CCCCc1nc(Cl)c(CNc2ccccc2C(=O)O)n1Cc1ccc(-c2nnn[nH]2)cc1 , what log10(IC50) is on record?
**A:** 1.03

**Q:** Name the reported log10(IC50) value associated with the compound CCCCc1nc(Cl)c(CNc2cc([N+](=O)[O-])ccc2C(=O)O)n1Cc1ccc(C(=O)O)cc1
**A:** 1.02
